test: protein stability index of a GFP-peptide fusion (yeast GPS) (PSI 1-4); higher = more stable; sorted into four equal gates, so the index is relative within each strain; details: pdr5∆
The reader will find reported protein stability index values listed item by item below.
Lab note: jot the number down without any unit.

Here are 5 sequences together with their reported answers.
LSEIESLDEILLPANLL [SRP68]: 3.08
TASSLAHDYNNDQDMFT [YML103C/NUP188]: 3.04
GRYMEALALYVDAYRRL [SRP68]: 1.91
KSTDLTPKGNESEQELS [MTR3]: 2.9
LKEVPTYRYVSVSVLVD [RPS25A]: 2.13

Query: Give the measured protein stability index for VDSWDREFLKVDQEMLY [SKP1]
Result: 3.29

Query: Indicate its recorded protein stability index; the sequence in question is LVLYDAENDVIEATDLG [BRR2]
Result: 3.26

Query: Supply reported protein stability index belonging to this sequence: QVLVCTATLAWGVNLPA [BRR2]
Result: 1.91

====

Recorded protein stability index, one value per entry.
experiment: protein stability index of a GFP-peptide fusion (yeast GPS) (PSI 1-4); higher = more stable; sorted into four equal gates, so the index is relative within each strain; conditions: doa10∆
Would you mind answering with just the numeric figure?

Query: Tell me its protein stability index given KRFQVLYPCYFDINRSH [SEC65] as the entry.
Result: 2.11

Query: Return the recorded protein stability index value; entry: NYHPMNIDETSDEVSRG [SMC4]
Result: 3.17

Query: Please report the measured protein stability index for LERYVKRCMDDLNPLKT [RPO31]
Result: 3.08

Query: For the sequence LRDESLTVDNLSIAIVG [PRE5] , give its reported protein stability index.
Result: 2.65

Query: Supply recorded protein stability index for KKSRSNLSQENDNEGKH [YAR002W/NUP60] here.
Result: 2.77

Query: For the sequence SLDTSASTINGASIIQV [YML103C/NUP188] , give its measured protein stability index value.
Result: 1.19

Query: Find the measured protein stability index of AALAPKIGPLGLSPKKV [RPL12A] and report it.
Result: 2.66

Query: Dear colleague, please send me the reported protein stability index for DDEHNPTIVGGLYYQRP [AAR2] when you can.
Result: 2.66

====

Each entry below carries its reported protein stability index.
assay: protein stability index of a GFP-peptide fusion (yeast GPS) (PSI 1-4); higher = more stable; sorted into four equal gates, so the index is relative within each strain; details: pdr5∆
I'd appreciate a reply containing only the number, no unit.

Example results:
LLNHGERAELETDEYIS [RPN1]: 1.87
PTVHNSTAAAPIAAPKK [PGD1]: 3.08
KPKKPKGRAYKRLLYTR [RPS30A]: 2.79
ADNVDKILEQFEYVLYP [FAS2]: 1.94
IDELIDTKLRLEKSKNE [YIL149C/MLP2]: 2.81

Query: Return reported protein stability index. Input sequence: LYDRPLKPDLNKITNQG [NAS6]
Result: 3.42

Query: For the sequence LKYHDFLRKATAFNKTR [RPL16B] , give its measured protein stability index value.
Result: 3.06

====

assay: protein stability index of a GFP-peptide fusion (yeast GPS) (PSI 1-4); higher = more stable; sorted into four equal gates, so the index is relative within each strain; settings: san1∆
Quick list: protein stability index per entry.
Returns: the value as a bare number; no unit string appended.

Some entries whose results are on file:
GETIKSNAVTQTNIWEE [SEM1]: 2.97
ELLSMGNAKESKALLRE [SRP72]: 2.91
SSFKEDCLSFAPTLSQT [SSN2]: 3.03

Query: Complete the entry with protein stability index for KITDKEDLLHYIEEKHP [POP4]
Result: 3.23

Query: For the sequence SQTNNSFLSGVKSLLSE [SIR4] , give its measured protein stability index value.
Result: 3.14

Query: Report protein stability index, nothing else, for this sequence: NATVNLAMEAILNELEV [YJR042W/NUP85]
Result: 2.58

Query: Output measured protein stability index for this item: PKNLSTPSTSSNGEFIP [CSE2]
Result: 2.79
